The origin of these recorded values is patent EP4610269A1.

target: human uPAR (uPAR-Fc) (Homo sapiens, UniProt Q03405); construct: comprising amino acids Leu23-Arg303 according to UniProt entry Q03405.1; purchased R&D Systems 10378-UK-100; test: Surface plasmon resonance (SPR) assay, single cycle kinetics; assay type: binding; details: pKD category for uPAR SPR activity assay; uPAR-Fc on Protein A-Chip, single cycle kinetics, 25°C; read-out: pKD CAT (converted)
Sequence (Q03405 23-303): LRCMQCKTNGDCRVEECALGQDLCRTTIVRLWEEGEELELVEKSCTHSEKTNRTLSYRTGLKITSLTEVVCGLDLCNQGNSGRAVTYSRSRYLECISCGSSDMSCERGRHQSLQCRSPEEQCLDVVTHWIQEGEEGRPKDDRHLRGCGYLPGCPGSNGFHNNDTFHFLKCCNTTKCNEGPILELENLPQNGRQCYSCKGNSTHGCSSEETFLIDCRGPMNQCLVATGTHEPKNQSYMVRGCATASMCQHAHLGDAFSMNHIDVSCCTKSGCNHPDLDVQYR
Where a SMILES comes first, the peptide text is derived from it. Bridges are numbered along the chain shown (N, C = ends). [ ]: non-standard residue; d: D form. The star is where a group is joined. Hyp = O=C(O)[C@@H]1C[C@@H](O)CN1; NMeL = CN[C@@H](CC(C)C)C(=O)O; Nva = CCC[C@H](N)C(=O)O; Pentanoyl = CCCCC(=O)*
PROPERTY_NAME: Kd

Item CCCCC(=O)N[C@H]1CSSC[C@@H](C(N)=O)NC(=O)[C@H](CCC)NC(=O)[C@H](Cc2ccccc2)NC(=O)[C@@H]2C[C@@H](O)CN2C(=O)[C@@H]2CCCN2C(=O)[C@H](Cc2ccccc2)NC(=O)[C@H](Cc2ccc(O)cc2)NC(=O)[C@H](CCC(N)=O)NC(=O)[C@H](CCCNC(=N)N)NC1=O [UPAR-447] (Pentanoyl-CRQYFP[Hyp]F[Nva]C-NH2; disulfide 1-10) has what recorded Kd?
< 1.58 nM

Please report the recorded Kd for CCCCC(=O)N[C@H]1CSSC[C@@H](C(N)=O)NC(=O)[C@H](CC(C)C)N(C)C(=O)[C@H]([C@@H](C)CC)NC(=O)[C@@H]2C[C@@H](O)CN2C(=O)[C@@H]2CCCN2C(=O)[C@H](Cc2ccccc2)NC(=O)[C@H](Cc2ccc(O)cc2)NC(=O)[C@H](CCC(N)=O)NC(=O)[C@H](CCCNC(=N)N)NC1=O [UPAR-480] (Pentanoyl-CRQYFP[Hyp]I[NMeL]C-NH2; disulfide 1-10) .
> 100 nM

====

target: uPAR-expressing HEC-265 human endometrial adenocarcinoma cells (Homo sapiens)
Sequence (Q03405 23-335): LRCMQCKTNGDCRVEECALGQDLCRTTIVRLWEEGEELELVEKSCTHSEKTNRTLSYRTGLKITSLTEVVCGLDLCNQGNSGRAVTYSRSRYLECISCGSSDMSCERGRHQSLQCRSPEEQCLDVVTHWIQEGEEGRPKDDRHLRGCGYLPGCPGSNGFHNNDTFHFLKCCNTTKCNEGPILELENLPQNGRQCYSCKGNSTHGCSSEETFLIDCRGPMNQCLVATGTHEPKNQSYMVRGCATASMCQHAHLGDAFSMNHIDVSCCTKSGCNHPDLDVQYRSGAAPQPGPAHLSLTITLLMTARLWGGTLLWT
pIC50: −log10 of the molar value. Where a SMILES comes first, the peptide text is derived from it. Bridges are numbered along the chain shown (N, C = ends). [ ]: non-standard residue; d: D form. The star is where a group is joined. DOTA = O=C(O)CN1CCN(CC(=O)O)CCN(CC(=O)*)CCN(CC(=O)O)CC1; Phe(4-NO2) = N[C@@H](Cc1ccc([N+](=O)[O-])cc1)C(=O)O; Pro(cis-4-F) = O=C(O)[C@@H]1C[C@H](F)CN1; Hyp = O=C(O)[C@@H]1C[C@@H](O)CN1; Pentanoyl(4-Me) = CC(C)CCC(=O)*; Cit = NC(=O)NCCC[C@H](N)C(=O)O; dDap = NC[C@@H](N)C(=O)O; Nva = CCC[C@H](N)C(=O)O; Pentanoyl = CCCCC(=O)*
PROPERTY_NAME: pIC50

State its pIC50 on uPAR-expressing HEC-265 human endometrial adenocarcinoma cells (Homo sapiens): CCCCC(=O)N[C@H]1CSSC[C@@H](C(N)=O)NC(=O)[C@H](CCC)NC(=O)[C@H]([C@@H](C)CC)NC(=O)[C@@H]2C[C@@H](O)CN2C(=O)[C@@H]2CCCN2C(=O)[C@H](Cc2ccccc2)NC(=O)[C@H](CC(C)C)NC(=O)[C@H](CCC(N)=O)NC(=O)[C@H](CCCNC(=N)N)NC1=O [UPAR-195] (Pentanoyl-CRQLFP[Hyp]I[Nva]C-NH2; disulfide 1-10)
7.50 to 7.90

Item CC[C@H](C)[C@@H]1NC(=O)[C@@H]2C[C@@H](O)CN2C(=O)[C@@H]2CCCN2C(=O)[C@H](Cc2ccccc2)NC(=O)[C@H](Cc2ccc(O)cc2)NC(=O)[C@H](CC(=O)O)NC(=O)[C@H](CCCNC(=N)N)NC(=O)[C@@H](NC(=O)CCC(C)C)CSSC[C@@H](C(N)=O)NC(=O)[C@H](CC(C)C)NC1=O [UPAR-458] ({Pentanoyl(4-Me)}-CRDYFP[Hyp]ILC-NH2; disulfide 1-10) with uPAR-expressing HEC-265 human endometrial adenocarcinoma cells (Homo sapiens) - pIC50?
≥ 8.00

uPAR-expressing HEC-265 human endometrial adenocarcinoma cells (Homo sapiens) / pIC50 / CCCCC(=O)N[C@H]1CSSC[C@@H](C(N)=O)NC(=O)[C@H](CCC)NC(=O)[C@H]([C@@H](C)CC)NC(=O)[C@@H]2C[C@@H](O)CN2C(=O)[C@@H]2CCCN2C(=O)[C@H](Cc2ccccc2)NC(=O)[C@H](Cc2ccc([N+](=O)[O-])cc2)NC(=O)[C@H](CCCCNC(=O)CN2CCN(CC(=O)O)CCN(CC(=O)O)CCN(CC(=O)O)CC2)NC(=O)[C@H](CCCNC(N)=O)NC1=O [UPAR-257] (Pentanoyl-C[Cit]K(DOTA)[Phe(4-NO2)]FP[Hyp]I[Nva]C-NH2; disulfide 1-10) : value?
≥ 8.00

Request body: readout pIC50, system uPAR-expressing HEC-265 human endometrial adenocarcinoma cells (Homo sapiens), query CCCCC(=O)N[C@H]1CSSC[C@@H](C(N)=O)NC(=O)[C@H](CCC)NC(=O)[C@H]([C@@H](C)CC)NC(=O)[C@@H](CN)NC(=O)[C@@H]2CCCN2C(=O)[C@H](Cc2ccccc2)NC(=O)[C@H](Cc2ccc(O)cc2)NC(=O)[C@H](CCC(N)=O)NC(=O)[C@H](CCCNC(=N)N)NC1=O [UPAR-330] (Pentanoyl-CRQYFP[dDap]I[Nva]C-NH2; disulfide 1-10) . Return the value.
≥ 8.00

Observed pIC50 on uPAR-expressing HEC-265 human endometrial adenocarcinoma cells (Homo sapiens) for CC[C@H](C)[C@@H]1NC(=O)[C@@H](C)NC(=O)[C@@H]2C[C@H](F)CN2C(=O)[C@H](Cc2ccccc2)NC(=O)[C@H](Cc2ccc(O)cc2)NC(=O)[C@H](CCC(N)=O)NC(=O)[C@H](CCCNC(N)=O)NC(=O)[C@@H](NC(=O)CCC(C)C)CSSC[C@@H](C(N)=O)NC(=O)[C@H](CC(C)C)NC1=O [UPAR-354] ({Pentanoyl(4-Me)}-C[Cit]QYF[Pro(cis-4-F)][dA]ILC-NH2; disulfide 1-10) , please.
≥ 8.00
